- assay.comment: molar heat capacity at constant pressure
- applied.conditions: 298.15 K; 101.33 kPa; Liquid; Small sample (50 mg) DSC
molar heat capacity at constant pressure values by entry
reported.property: molar heat capacity at constant pressure (J/K/mol)

>>> test_result("CC(O)CO (stereo not given)")
191.29
>>> test_result("OCCO")
150.22
>>> test_result("OCCCO")
176.91
>>> test_result("CCCCC(O)CO (stereo not given)")
293.1
>>> test_result("OCCCCO")
203.73

====

- applied.conditions: 293.15 K; 101.33 kPa; Liquid; Vibrating tube method
reported.property: mass density (kg/m3)

>>> test_result("CC(O)CO (stereo not given) [1,2-propanediol]")
1036.58
>>> test_result("OCCCO [propan-1,3-diol]")
1052.85
>>> test_result("OCCCCO [1,4-butanediol]")
1016.11
>>> test_result("CCCCC(O)CO (stereo not given) [1,2-hexanediol]")
951.73
>>> test_result("OCCO [1,2-ethanediol]")
1113.34

====

- applied.conditions: 303.15 K; 101.33 kPa; Liquid; Vibrating tube method
Lab note - cut at 1000 kg/m3 for mass density: yes if strictly below, no if not.

>>> class("CCCCC(O)CO (stereo not given)")
"yes"
>>> class("OCCO")
"no"
>>> class("OCCCO")
"no"

====

- applied.conditions: 298.15 K; 101.33 kPa; Liquid; Vibrating tube method
reported.property: mass density (kg/m3)

>>> test_result("OCCCO [propan-1,3-diol]")
1049.68
>>> test_result("OCCCCO [1,4-butanediol]")
1013.06
>>> test_result("CCCCC(O)CO (centres undefined) [1,2-hexanediol]")
948.1
>>> test_result("CC(O)CO (centres undefined) [1,2-propanediol]")
1032.86

====

- assay.comment: molar heat capacity at constant pressure
- applied.conditions: 303.15 K; 101.33 kPa; Liquid; Small sample (50 mg) DSC
Numbers after ± are expanded uncertainties.
molar heat capacity at constant pressure values by entry
reported.property: molar heat capacity at constant pressure

>>> test_result("OCCCO [propan-1,3-diol]")
"179.52 ± 7.6 J/K/mol"
>>> test_result("OCCCCO [1,4-butanediol]")
"206.71 ± 8.8 J/K/mol"
>>> test_result("CC(O)CO (stereo not given) [1,2-propanediol]")
"193.95 ± 8.2 J/K/mol"
>>> test_result("OCCO [1,2-ethanediol]")
"151.96 ± 6.4 J/K/mol"
>>> test_result("CCCCC(O)CO (stereo not given) [1,2-hexanediol]")
"298.44 ± 13 J/K/mol"

====

- assay.comment: molar heat capacity at constant pressure
- applied.conditions: 283.15 K; 101.33 kPa; Liquid; Small sample (50 mg) DSC
molar heat capacity at constant pressure values by entry
reported.property: molar heat capacity at constant pressure (J/K/mol)

>>> test_result("CCCCC(O)CO (stereo not given) [1,2-hexanediol]")
277.11
>>> test_result("OCCO [1,2-ethanediol]")
145.38
>>> test_result("OCCCCO [1,4-butanediol]")
195.51
>>> test_result("CC(O)CO (stereo not given) [1,2-propanediol]")
183.26
>>> test_result("OCCCO [propan-1,3-diol]")
169.44

====

- assay.comment: molar heat capacity at constant pressure
- applied.conditions: 313.15 K; 101.33 kPa; Liquid; Small sample (50 mg) DSC
Values of molar heat capacity at constant pressure greater than or equal to 200 J/K/mol map to true; values below map to false.

>>> class("OCCCCO")
"true"
>>> class("OCCCO")
"false"
>>> class("OCCO")
"false"
>>> class("CCCCC(O)CO (stereo not given)")
"true"

====

- applied.conditions: 283.15 K; 101.33 kPa; Liquid; Vibrating tube method
± gives the expanded uncertainty stated by the source.
reported.property: mass density

>>> test_result("OCCO")
"1120.39 ± 0.22 kg/m3"
>>> test_result("OCCCO")
"1059.14 ± 0.96 kg/m3"
>>> test_result("CC(O)CO (stereo not given)")
"1043.89 ± 0.22 kg/m3"
>>> test_result("OCCCCO")
"1022.21 ± 0.3 kg/m3"
>>> test_result("CCCCC(O)CO (stereo not given)")
"958.85 ± 0.79 kg/m3"

====

- assay.comment: molar heat capacity at constant pressure
- applied.conditions: 293.15 K; 101.33 kPa; Liquid; Small sample (50 mg) DSC
reported.property: molar heat capacity at constant pressure (J/K/mol)

>>> test_result("CC(O)CO (stereo not given) [1,2-propanediol]")
188.62
>>> test_result("OCCO [1,2-ethanediol]")
148.53
>>> test_result("CCCCC(O)CO (stereo not given) [1,2-hexanediol]")
287.76
>>> test_result("OCCCO [propan-1,3-diol]")
174.37
>>> test_result("OCCCCO [1,4-butanediol]")
200.85

====

- applied.conditions: 313.15 K; 101.33 kPa; Liquid; Vibrating tube method
Lab note - cut at 1000 kg/m3 for mass density: t if strictly below, f if not.

>>> class("OCCO")
"f"
>>> class("CCCCC(O)CO (stereo not given)")
"t"
>>> class("OCCCO")
"f"
